From: PubChem BioAssay

Target: Luciferin 4-monooxygenase (Photinus pyralis) (UniProt P08659)
Sequence (P08659 whole entry, looked up): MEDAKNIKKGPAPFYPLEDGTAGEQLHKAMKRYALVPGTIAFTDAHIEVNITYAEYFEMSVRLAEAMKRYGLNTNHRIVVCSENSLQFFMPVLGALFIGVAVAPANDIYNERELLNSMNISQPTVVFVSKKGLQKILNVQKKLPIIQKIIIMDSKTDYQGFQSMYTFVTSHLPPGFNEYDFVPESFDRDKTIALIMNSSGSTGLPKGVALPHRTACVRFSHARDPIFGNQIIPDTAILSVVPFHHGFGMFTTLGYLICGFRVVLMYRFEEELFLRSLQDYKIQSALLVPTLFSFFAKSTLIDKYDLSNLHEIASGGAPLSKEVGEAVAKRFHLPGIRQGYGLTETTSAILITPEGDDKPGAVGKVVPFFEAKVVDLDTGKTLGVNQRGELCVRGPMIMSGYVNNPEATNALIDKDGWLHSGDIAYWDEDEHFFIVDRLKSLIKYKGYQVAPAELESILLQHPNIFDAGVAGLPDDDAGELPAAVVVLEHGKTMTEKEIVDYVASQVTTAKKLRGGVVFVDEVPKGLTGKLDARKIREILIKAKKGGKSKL
Test: inhibition of purified Photinus pyralis luciferase – biochemical, luminescence, purified enzyme, 2006 set, primary screen (AID 1141);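 further: cell-free assay with purified firefly luciferase at 100 ng per well in PBS; test concentration not given here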
Conditions: purified firefly luciferase, SteadyGlo luminescence, 30 min; higher = more signal, called active from +8 up or from −8 down
MEASURED_ATTRIBUTE: z-score
Reply with just the number.

Worked examples follow.
[
  {
    "COMPOUND": "COc1cc(OC)c(C(O)C2C=CC3C(=O)NC(=O)C3N2Nc2ccccn2)cc1Br (centres undefined)",
    "z-score": -1.36
  },
  {
    "COMPOUND": "CC(C)(C)OC(=O)CC[C@]1(C(N)=O)N=C(c2ccc(OCCCO)cc2)O[C@H]1c1ccccc1",
    "z-score": -0.47
  },
  {
    "COMPOUND": "O=C1C2C=CC(C(O)C=Cc3ccc([N+](=O)[O-])cc3)N(Nc3ccccc3F)C2C(=O)N1c1ccccc1 (centres undefined)",
    "z-score": -0.252
  }
]

Continue with the compound presented below.
Entry CCCCCCCCCCC(O)C1C=CC2C(=O)NC(=O)C2N1Nc1ccc(Cl)cc1Cl (centres undefined) ; assay system Luciferin 4-monooxygenase (Photinus pyralis) (UniProt P08659); z-score recorded at -0.836

---

Test system: Neuregulin-1 EGF-like domain
Assay: small molecules binding NRG1 EGF domain – biochemical, small-molecule microarray, 635 nm fluorescence, primary screen (AID 1081);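 further: binding of the protein to compounds printed on small-molecule microarray slides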
Conditions: higher = more signal
Decide by composite z-score: equal to or exceeding 1 means Y, less means N.

[
  {
    "MOLECULE": "Cc1c(NC(=O)/C(C#N)=C/c2cccc([N+](=O)[O-])c2)c(=O)n(-c2ccccc2)n1C",
    "TARGET": "Neuregulin-1 EGF-like domain",
    "CLASS_ASSIGNMENT": "Y"
  },
  {
    "MOLECULE": "COc1ccc(C(=O)Nc2ccc(CN3C(=O)[C@]4(O[C@H](CC(=O)N5CCC[C@H]5CO)[C@@H]([Si](C)(C)c5ccc(OC)cc5)[C@@H]4C)c4ccccc43)cc2)cc1",
    "TARGET": "Neuregulin-1 EGF-like domain",
    "CLASS_ASSIGNMENT": "Y"
  }
]

Textbook exercise: given the entry C=C(/C(=C/C[C@H](OC(=O)c1ccncc1)c1ccc(OCCO)cc1)c1cc(C(=O)OC)ccc1OC)C(C)C , state whether its composite z-score is greater than or equal to 1.
N

Is it the case that CC#CC(=O)Oc1ccc(Br)cc1C=CC(=O)OCC has composite z-score reaching or exceeding 1?
Y

---

Experiment: inhibition of PAO1 biofilm formation – strain PAO1, LB-PBS medium, absorbance 600 nm, primary screen (AID 1176); further: test concentration not given here
Details: P. aeruginosa PAO1 growth/biofilm, A600, 12 h; higher = more signal
MEASURED_ATTRIBUTE: z-score
Could you respond with only the numeric value?

Solved cases below.
[
  {
    "MOLECULE": "NC(=O)N1C(=O)C2C(C1=O)C1C=C(CCCO)C2C(C2CC2)N1Cc1cc2c(cc1Br)OCO2 (stereo not drawn)",
    "MEASURED_ATTRIBUTE": "z-score",
    "RESULT_NUMBER": -0.778
  },
  {
    "MOLECULE": "O=C(CS)NCCCCCNC(=O)[C@H]1C[C@H]2C(=O)NCC(=O)N2[C@H]1c1ccc(O)cc1",
    "MEASURED_ATTRIBUTE": "z-score",
    "RESULT_NUMBER": -0.832
  }
]

Entry under test: C=CCN(Cc1ccccc1)C(=O)C(c1cccs1)N(C(=O)/C=C\C(=O)O)c1ccc(CCOCCO)cc1 (stereo not drawn) . Its z-score was 0.742

---

Target: Follistatin-related protein 3 (Homo sapiens) (UniProt O95633)
Sequence (O95633 whole entry, looked up): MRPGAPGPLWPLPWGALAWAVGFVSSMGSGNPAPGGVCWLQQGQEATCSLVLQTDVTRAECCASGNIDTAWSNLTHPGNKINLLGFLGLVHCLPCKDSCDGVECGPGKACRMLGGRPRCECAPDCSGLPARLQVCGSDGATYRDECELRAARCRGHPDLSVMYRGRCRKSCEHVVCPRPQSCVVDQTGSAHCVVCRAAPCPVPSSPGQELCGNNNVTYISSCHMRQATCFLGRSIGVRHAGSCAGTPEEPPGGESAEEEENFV
Experiment: compounds binding follistatin-related protein 3 – biochemical, small-molecule microarray, 635 nm fluorescence, primary screen (AID 1105);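 further: score merges emission near 667 nm and signal to noise per printed spot across three slides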
Details: FSTL3 binding, higher = more signal
Tick 1 if composite z-score is 0.2 or greater. Tick 0 if composite z-score is less than 0.2.

Previously resolved entries follow.
[
  {
    "COMPOUND": "C=CC[C@@]1(C(=O)N2CCCCC2)N=C(c2ccc(OCCCO)cc2)O[C@@H]1c1ccccc1N=[N+]=[N-]",
    "TARGET": "Follistatin-related protein 3 (Homo sapiens) (UniProt O95633)",
    "CLASS_ASSIGNMENT": 1
  },
  {
    "COMPOUND": "CCN(CC)c1ccc(N2CC=CC34O[C@@H]5/C=C\\CCC(C)OC(=O)C5[C@H]3C(=O)N(CCCCCO)[C@@H]4C2=O)cc1 (stereo partly specified)",
    "TARGET": "Follistatin-related protein 3 (Homo sapiens) (UniProt O95633)",
    "CLASS_ASSIGNMENT": 0
  },
  {
    "COMPOUND": "CCOC(=O)C1=CCC(c2ccc(F)cc2)N(S(=O)(=O)c2ccc(C)cc2)C1 (stereo unspecified)",
    "TARGET": "Follistatin-related protein 3 (Homo sapiens) (UniProt O95633)",
    "CLASS_ASSIGNMENT": 1
  }
]

Can O=C(O)[C@@]1(CCS(=O)(=O)c2ccccc2)N=C(c2ccc(OCCCO)cc2)O[C@H]1c1ccccc1 be said to have composite z-score at or above 0.2?
1

Say whether C=C(C)[C@@H]1CC=C(C(O)C2C=CC3C(=O)NC(=O)C3N2Nc2ccc(Cl)cc2Cl)CC1 (stereo partly specified) shows composite z-score of 0.2 or more.
1

# check: composite z-score of C=CC[C@]12N=C(c3ccc(OCCCO)cc3)O[C@H]1c1ccccc1N(CCS(=O)(=O)c1ccccc1)C2=O is greater than or equal to 0.2
1

---

Molecular target: Albumin (Bos taurus)
Experiment: compounds binding labelled BSA control protein – biochemical, small-molecule microarray, Alexa647 label, 635/667 nm fluorescence, artefact control for SMM control protein annotation, profiling panel (AID 1118);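 further: score merges 667 nm emission intensity and signal-to-noise per printed compound spot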
Settings: BSA-A647 binding, fluorescence 635 nm, higher = more signal
# label = y if composite z-score >= 0.7 else n

[
  {
    "COMPOUND": "CN(C)CCCC[C@@H]1NC(=O)[C@H]2C[C@@H](C(=O)NCCCCCN)[C@@H](c3cccc(OCCO)c3)N2C1=O",
    "TARGET": "Albumin (Bos taurus)",
    "CLASS_ASSIGNMENT": "y"
  },
  {
    "COMPOUND": "CCN(CC)c1ccc(N2CC=CC34O[C@@H]5C=CCOC(=O)[C@@H]5[C@H]3C(=O)N(CCCCCCO)[C@@H]4C2=O)cc1 (stereo not given in full)",
    "TARGET": "Albumin (Bos taurus)",
    "CLASS_ASSIGNMENT": "y"
  },
  {
    "COMPOUND": "N#Cc1ccc(C(O)C2C=CC3C(=O)N(c4ccccc4)C(=O)C3N2Nc2ccccc2F)cc1 (stereo not given)",
    "TARGET": "Albumin (Bos taurus)",
    "CLASS_ASSIGNMENT": "y"
  },
  {
    "COMPOUND": "[N-]=[N+]=Nc1ccccc1C[C@@]1(C(=O)N2CCCCC2)N=C(c2ccc(OCCCO)cc2)O[C@@H]1c1ccccc1N=[N+]=[N-]",
    "TARGET": "Albumin (Bos taurus)",
    "CLASS_ASSIGNMENT": "y"
  }
]

Reported composite z-score reaches at least 0.7 for CC(C)(C)OC(=O)CC[C@]1(C(=O)NCCN2CCOCC2)COC(c2ccc(OCCCO)cc2)=N1 ?
y

Has Cc1ccc(S[C@]2(C(=O)O)CC(=O)N(C(C)C)[C@@H]2c2ccc(CO)cc2)cc1 a recorded composite z-score greater than or equal to 0.7?
n

API: above_or_equal(metric=composite z-score, cutoff=0.7) for item COCCOC(=O)N1C(=O)[C@@]2(c3cc(C#CCCO)ccc31)[C@H](c1ccc(O)cc1)N1[C@H](c3ccccc3)[C@H](c3ccccc3)OC(=O)[C@H]1[C@@H]2C(=O)N1CCN(c2ncccn2)CC1
n

Exam item: decide whether the reported composite z-score for O=C1[C@@]23C=C(Br)[C@H](C[C@@H]2COC3)[C@]12CO2 is at least 0.7.
n

Please check the record COc1ccc(C(O)C2C=CC3C(=O)N(C)C(=O)C3N2NC(=O)OC(C)(C)C)c2ccccc12 (stereo not given) and state if its composite z-score is at or above 0.7.
y

Given C=C(CCCC)C(=O)CC[C@@H](OC(C)=O)c1ccc(CO)o1 , state whether its composite z-score is at least 0.7.
n

API: above_or_equal(metric=composite z-score, cutoff=0.7) for item O=C1C2C=CC(C(O)c3c(F)cccc3Cl)N(Nc3ccccc3F)C2C(=O)N1c1ccccc1 (stereo not given)
y

Threshold query (composite z-score >= 0.7) on Cc1ccc(/C=C/C=O)cc1
y

Is composite z-score at least 0.7? Consider CCCCCCc1nc(-c2ccc(-c3ccc(Cl)c(Cl)c3)o2)c(C)c2c1[Si](C(C)C)(C(C)C)OC2
n

Entry COc1ccc([Si](C)(C)[C@@H]2[C@@H](CCO)O[C@]3(C(=O)N(Cc4cccc(N5CCOC5=O)c4)c4ccccc43)[C@H]2C)cc1 : is its composite z-score no less than 0.7?
y
